target_or_test_system: OASS-B (Salmonella typhimurium)
Construct: His6 (N, cleaved yes); made in house; host or cells: E. coli Rosetta (DE3)
Sequence (P29848 1-303): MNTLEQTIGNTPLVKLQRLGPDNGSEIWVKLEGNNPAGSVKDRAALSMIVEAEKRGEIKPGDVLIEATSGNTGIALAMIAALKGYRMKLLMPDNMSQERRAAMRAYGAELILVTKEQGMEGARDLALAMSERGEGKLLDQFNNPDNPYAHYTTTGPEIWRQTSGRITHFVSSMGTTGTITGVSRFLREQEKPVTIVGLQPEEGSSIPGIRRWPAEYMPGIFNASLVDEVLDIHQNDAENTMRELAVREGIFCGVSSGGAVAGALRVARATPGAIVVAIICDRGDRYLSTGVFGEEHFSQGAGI
protocol_summary: 96-well activity assay (cysteine-ninhydrin), OASS-B
Assay type: biochemical
run_parameters: read-out: % inhibition OASS-B
Below, each of the molecules is paired with its reported inhibition at 1000 µM value.
Please state the figure in %; there is no need to write the unit.

O=C(O)c1ccnn1-c1ccc(Cl)cc1 [Compound 4d] | 56
Cc1ccc(-n2nccc2C(=O)O)cc1 [Compound 4a] | 65
O=C(O)c1ccnn1-c1ccc(F)cc1 [Compound 4g] | 62
O=C(O)c1ccn[nH]1 [Compound 4c, 1H-pyrazole-5-carboxylic acid] | 82
O=C(O)c1ccn(-c2ccc(Cl)cc2)n1 [Compound 5d] | 63

Kindly consider the entry below.
[Q] Returns the measured inhibition at 1000 µM for the input molecule. Input: O=C(O)c1ccnn1-c1ccccc1 [Compound 4b, 1-phenyl-1H-pyrazole-5-carboxylic acid]
[A] 65

Where do these numbers come from? They come from paper PMC6147075.
